- System: T47D (PI3Kα H1047R mutant) cells
- ASSAY DETAILS: CellTiter-Glo 2.0 luminescent cell viability assay, 72 hours, T47D cells
- Assay type: cell-based
- CONDITION PARAMETERS: T47D (PI3Kα H1047R mutant) cells, CellTiter-Glo, approximately 72 hours; read-out: T47D (H1047R mutant) Viability IC50
- Method: This Example illustrates that exemplary compounds of the present invention decrease the viability of cells. The ability of a compound of Formula (I) to decrease the viability of cells was measured using CellTiter-Glo 2.0 (CTG) Luminescent Cell Viability Assay (#G9241) obtained from Promega (Madison, WI). To prepare assay plates for viability assays, cells were trypsinized, resuspended in fresh media, and viable cells were counted utilizing trypan blue exclusion. […]
Provide the reported pIC50 of each item.
As a rule, pIC50 stands for the negative log10 of the concentration, concentration in M.

Problem: Which measured pIC50 value corresponds to Cc1cc([C@@H](C)Nc2ccccc2C(=O)O)c2nc(N3CCN(c4ccc(C#N)cc4)C[C@H]3C)c(C)c(=O)n2c1 ?
Result: 7.21

Problem: Proceed to Cc1cc([C@@H](C)Nc2ccccc2C(=O)O)c2nc(N3CCC4(CCOC4)CC3)c(C)c(=O)n2c1 [Example 10-130]
Result: 7.33

Problem: Proceed to CCc1cc([C@@H](C)Nc2ccccc2C(=O)O)c2nc(N3Cc4ccccc4C3)c(C#N)c(=O)n2c1 [Example 10-10]
Result: 7.53

Problem: Proceed to Cc1cc([C@@H](C)Nc2ccc(F)nc2C(=O)O)c2nc(N3CCC(F)(F)CC3)c(C)c(=O)n2c1 [Example 10-105]
Result: 7.05

Problem: Proceed to Cc1cc([C@@H](C)Nc2ccccc2C(=O)O)c2nc(N3CCN(c4ccc(C#N)cc4)CC3C)c(C)c(=O)n2c1 (stereo partly drawn) [Example 11-269]
Result: 6.96

Problem: Proceed to Cc1cc([C@@H](C)Nc2ccccc2C(=O)O)c2nc(N3Cc4cc(F)c(F)cc4C3)c(C)c(=O)n2c1 [Example 11-188]
Result: 6.82

Problem: Proceed to Cc1cc([C@@H](C)Nc2ccccc2C(=O)O)c2nc(N3CCC4(CCOC4)CC3)c(C)c(=O)n2c1 [Example 11-62]
Result: 6.76

Problem: Proceed to Cc1cc([C@@H](C)Nc2ccccc2C(=O)O)c2nc(N3Cc4cc(F)c(F)cc4C3)c(C)c(=O)n2c1 [Example 10-140]
Result: 7.12

Problem: Proceed to Cc1cc([C@@H](C)Nc2ccccc2C(=O)O)c2nc(N3CCN(c4ccc(C#N)cc4)CC3C)c(C)c(=O)n2c1 (stereo partly drawn) [Example 10-20]
Result: 7.37

Problem: Proceed to Cc1cc([C@@H](C)Nc2ccc(F)nc2C(=O)O)c2nc(N3CCC(F)(F)CC3)c(C)c(=O)n2c1 [Example 11-45]
Result: 5.53

Problem: Proceed to Cc1cc([C@@H](C)Nc2ccc(Cl)nc2C(=O)O)c2nc(N3Cc4ccccc4C3)c(C)c(=O)n2c1 [Example 11-360]
Result: 5.96

Problem: Proceed to CCc1cc([C@@H](C)Nc2ccccc2C(=O)O)c2nc(N3Cc4ccccc4C3)c(C#N)c(=O)n2c1 [Example 11-328]
Result: 5.72

Problem: Proceed to Cc1cc([C@@H](C)Nc2ccc(F)nc2C(=O)O)c2nc(N3Cc4ccccc4C3)c(C)c(=O)n2c1 [Example 10-29]
Result: 7.27

Problem: Proceed to Cc1cc([C@@H](C)Nc2ccc(F)nc2C(=O)O)c2nc(N3Cc4ccccc4C3)c(C)c(=O)n2c1 [Example 11-351]
Result: 6.02

Problem: Proceed to Cc1cc([C@@H](C)Nc2ccc(Cl)nc2C(=O)O)c2nc(N3Cc4ccccc4C3)c(C)c(=O)n2c1 [Example 10-30]
Result: 7.26
